RUN_DESCRIPTION: clinical
CONDITION_DETAILS: human, in vivo, po, 1 mg
OUTCOME_MEASURE: AUC(0-inf) (µg·h/mL)
Field format: number, assumed µg·h/mL, no unit text.

Would you kindly share the measured AUC(0-inf) for `Cn1ncnc1[C@H]1c2n[nH]c(=O)c3cc(F)cc(c23)N[C@@H]1c1ccc(F)cc1` ?
0.208

###

RUN_DESCRIPTION: clinical
CONDITION_DETAILS: human, in vivo, po, 1 mg
OUTCOME_MEASURE: AUC(0-t) (ng·h/mL)
Field format: number, assumed ng·h/mL, no unit text.

Would you kindly share the measured AUC(0-t) for Cn1ncnc1[C@H]1c2n[nH]c(=O)c3cc(F)cc(c23)N[C@@H]1c1ccc(F)cc1 [talazoparib] ?
172

###

RUN_DESCRIPTION: clinical
CONDITION_DETAILS: human, in vivo, po, 1 mg
OUTCOME_MEASURE: Vd/F (L)
Field format: number, assumed L, no unit text.

Would you kindly share the measured Vd/F for `Cn1ncnc1[C@H]1c2n[nH]c(=O)c3cc(F)cc(c23)N[C@@H]1c1ccc(F)cc1` ?
457

###

RUN_DESCRIPTION: clinical
CONDITION_DETAILS: human, in vivo, po, 1 mg
OUTCOME_MEASURE: half-life (h)
Field format: number, assumed h, no unit text.

Would you kindly share the measured half-life for Cn1ncnc1[C@H]1c2n[nH]c(=O)c3cc(F)cc(c23)N[C@@H]1c1ccc(F)cc1 [talazoparib] ?
67
